# particulars: in methanol, 313.15 K
quantity: solubility (mole fraction)
Returns: the value as a bare number; no unit string appended.

[in] Need solubility (mole fraction), item C[C@]12CCC3=C4CCC(=O)C=C4CC[C@H]3[C@@H]1CC[C@@]2(O)CC#N
[out] 0.00493

----------
# particulars: in acetonitrile, 273.15 K
quantity: solubility (mole fraction)
Returns: the value as a bare number; no unit string appended.

[in] Need solubility (mole fraction), item C[C@]12CCC3=C4CCC(=O)C=C4CC[C@H]3[C@@H]1CC[C@@]2(O)CC#N
[out] 0.00125

----------
# particulars: in water, 293.15 K
quantity: solubility (mole fraction)
Returns: the value as a bare number; no unit string appended.

[in] Need solubility (mole fraction), item C[C@]12CCC3=C4CCC(=O)C=C4CC[C@H]3[C@@H]1CC[C@@]2(O)CC#N
[out] 8.19e-06

----------
# particulars: in MTBE, 313.15 K
quantity: solubility (mole fraction)
Returns: the value as a bare number; no unit string appended.

[in] Need solubility (mole fraction), item C[C@]12CCC3=C4CCC(=O)C=C4CC[C@H]3[C@@H]1CC[C@@]2(O)CC#N
[out] 0.000489

----------
# particulars: in MTBE, 298.15 K
quantity: solubility (mole fraction)
Returns: the value as a bare number; no unit string appended.

[in] Need solubility (mole fraction), item C[C@]12CCC3=C4CCC(=O)C=C4CC[C@H]3[C@@H]1CC[C@@]2(O)CC#N
[out] 0.000384

----------
# particulars: in acetonitrile, 313.15 K
quantity: solubility (mole fraction)
Returns: the value as a bare number; no unit string appended.

[in] Need solubility (mole fraction), item C[C@]12CCC3=C4CCC(=O)C=C4CC[C@H]3[C@@H]1CC[C@@]2(O)CC#N
[out] 0.00414

----------
# particulars: in ethanol, 293.15 K
quantity: solubility (mole fraction)

[in] Need solubility (mole fraction), item C[C@]12CCC3=C4CCC(=O)C=C4CC[C@H]3[C@@H]1CC[C@@]2(O)CC#N
[out] 0.00233

----------
# particulars: in ethyl acetate, 298.15 K
quantity: solubility (mole fraction)
Returns: the value as a bare number; no unit string appended.

[in] Need solubility (mole fraction), item C[C@]12CCC3=C4CCC(=O)C=C4CC[C@H]3[C@@H]1CC[C@@]2(O)CC#N
[out] 0.00273

----------
# particulars: in water, 303.15 K
quantity: solubility (mole fraction)
Returns: the value as a bare number; no unit string appended.

[in] Need solubility (mole fraction), item C[C@]12CCC3=C4CCC(=O)C=C4CC[C@H]3[C@@H]1CC[C@@]2(O)CC#N
[out] 9.62e-06

----------
# particulars: in methanol, 283.15 K
quantity: solubility (mole fraction)
Returns: the value as a bare number; no unit string appended.

[in] Need solubility (mole fraction), item C[C@]12CCC3=C4CCC(=O)C=C4CC[C@H]3[C@@H]1CC[C@@]2(O)CC#N
[out] 0.00235

----------
# particulars: in isopropanol, 308.15 K
quantity: solubility (mole fraction)
Returns: the value as a bare number; no unit string appended.

[in] Need solubility (mole fraction), item C[C@]12CCC3=C4CCC(=O)C=C4CC[C@H]3[C@@H]1CC[C@@]2(O)CC#N
[out] 0.00273

----------
# particulars: in MTBE, 303.15 K
quantity: solubility (mole fraction)
Returns: the value as a bare number; no unit string appended.

[in] Need solubility (mole fraction), item C[C@]12CCC3=C4CCC(=O)C=C4CC[C@H]3[C@@H]1CC[C@@]2(O)CC#N
[out] 0.000416
